# systemTested: Kappa-type opioid receptor (Homo sapiens)
# Sequence (P41145 whole entry): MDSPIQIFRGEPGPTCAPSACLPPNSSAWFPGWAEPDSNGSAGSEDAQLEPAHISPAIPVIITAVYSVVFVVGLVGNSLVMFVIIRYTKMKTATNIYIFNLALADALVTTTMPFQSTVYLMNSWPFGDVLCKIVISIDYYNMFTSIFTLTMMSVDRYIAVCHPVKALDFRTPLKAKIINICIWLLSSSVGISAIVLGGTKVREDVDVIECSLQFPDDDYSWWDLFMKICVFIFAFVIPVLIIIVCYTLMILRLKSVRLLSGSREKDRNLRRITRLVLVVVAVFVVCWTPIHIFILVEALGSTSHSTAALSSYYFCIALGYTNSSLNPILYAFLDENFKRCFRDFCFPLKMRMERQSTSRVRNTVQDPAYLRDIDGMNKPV
# assaySummary: Inhibition of human kappa opioid receptor expressed in HEK293T cells assessed as inhibition of cAMP production after 30 mins
Reported values of log10 of EC50 for individual entries
Scale: log10; quantity: EC50; unit before log: nM

Known log10 of EC50 results, listed for orientation:
| compound | reading |
| --- | --- |
| COC(=O)[C@@H]1C[C@H](OC(=O)/C=C/c2ccccc2OC)C(=O)[C@H]2[C@@]1(C)CC[C@H]1C(=O)O[C@H](c3ccoc3)C[C@]21C | 1.00 |
| C=C(C)CC(=O)O[C@H]1C[C@@H](C(=O)OC)[C@]2(C)CC[C@H]3C(=O)O[C@H](c4ccoc4)C[C@]3(C)[C@H]2C1=O | 1.40 |
| COC(=O)[C@@H]1C[C@H](OC(=O)/C=C/c2ccc([N+](=O)[O-])cc2)C(=O)[C@H]2[C@@]1(C)CC[C@H]1C(=O)O[C@H](c3ccoc3)C[C@]21C | 1.51 |

Value lookup for log10 of EC50; key = COC(=O)[C@@H]1C[C@H](OC(=O)/C=C/c2ccc(OC)cc2)C(=O)[C@H]2[C@@]1(C)CC[C@H]1C(=O)O[C@H](c3ccoc3)C[C@]21C
1.32

// same read-out, input: COC(=O)[C@@H]1C[C@H](OC(=O)/C=C/c2ccccc2[N+](=O)[O-])C(=O)[C@H]2[C@@]1(C)CC[C@H]1C(=O)O[C@H](c3ccoc3)C[C@]21C
1.52

// same read-out, input: COC(=O)[C@@H]1C[C@H](OC(=O)/C=C/c2cc(OC)c(OC)c(OC)c2)C(=O)[C@H]2[C@@]1(C)CC[C@H]1C(=O)O[C@H](c3ccoc3)C[C@]21C
3.26

// same read-out, input: COC(=O)[C@@H]1C[C@H](OC(=O)/C=C/c2ccsc2)C(=O)[C@H]2[C@@]1(C)CC[C@H]1C(=O)O[C@H](c3ccoc3)C[C@]21C
2.76

// same read-out, input: C/C=C/C(=O)O[C@H]1C[C@@H](C(=O)OC)[C@]2(C)CC[C@H]3C(=O)O[C@H](c4ccoc4)C[C@]3(C)[C@H]2C1=O
1.04

// same read-out, input: COC(=O)[C@@H]1C[C@H](OC(=O)/C=C/c2cccnc2)C(=O)[C@H]2[C@@]1(C)CC[C@H]1C(=O)O[C@H](c3ccoc3)C[C@]21C
3.25

// same read-out, input: COC(=O)[C@@H]1C[C@H](OC(=O)/C=C/c2ccccc2C(F)(F)F)C(=O)[C@H]2[C@@]1(C)CC[C@H]1C(=O)O[C@H](c3ccoc3)C[C@]21C
1.30

// same read-out, input: COC(=O)[C@@H]1C[C@H](OC(=O)/C=C/c2ccccc2)C(=O)[C@H]2[C@@]1(C)CC[C@H]1C(=O)O[C@H](c3ccoc3)C[C@]21C
0.85

// same read-out, input: COC(=O)[C@@H]1C[C@H](OC(=O)/C=C/c2cc(C(F)(F)F)ccc2C(F)(F)F)C(=O)[C@H]2[C@@]1(C)CC[C@H]1C(=O)O[C@H](c3ccoc3)C[C@]21C
3.08

// same read-out, input: C=CC(=O)O[C@H]1C[C@@H](C(=O)OC)[C@]2(C)CC[C@H]3C(=O)O[C@H](c4ccoc4)C[C@]3(C)[C@H]2C1=O
2.14

// same read-out, input: C/C=C(\C)C(=O)O[C@H]1C[C@@H](C(=O)OC)[C@]2(C)CC[C@H]3C(=O)O[C@H](c4ccoc4)C[C@]3(C)[C@H]2C1=O
2.68

// same read-out, input: COC(=O)[C@@H]1C[C@H](OC(=O)/C=C/c2cc(OC)ccc2OC)C(=O)[C@H]2[C@@]1(C)CC[C@H]1C(=O)O[C@H](c3ccoc3)C[C@]21C
1.58
